# Test system: L180M + M204V (LM) mutant HBV-DNA construct transfected into HepG2 cells
# test.method.notes: transient transfection cell culture assay, extracellular HBV-DNA by real-time PCR, rtL180M+rtM204V (LM) construct
# Format: cell-based, HBV genotype A
# applied.conditions: L180M + M204V (LM) construct, HepG2 cells, 5 days post-transfection
assay.readout: pIC50
Just so you know, pIC50 here is -log10 of the concentration in molar units; reply with that number alone.

So for CC(C)OC(=O)OCOP(=O)(CO[C@H](C)Cn1cnc2c(N)ncnc21)OCOC(=O)OC(C)C.O=C(O)/C=C/C(=O)O [tenofovir, Tenofovir disoproxil fumarate] , the logged pIC50 turned out to be 4.15
